biological target: AKT (Homo sapiens, UniProt Q9Y243); construct: Kinases are expressed as either kinase domains or full length constructs; made in house; test: Kinase inhibition assay (33P transfer), AKT; assay type: biochemical; settings: Table 2, class symbols A-E; read-out: AKT3-1
Sequence (Q9Y243 whole entry, the tested form may be a part): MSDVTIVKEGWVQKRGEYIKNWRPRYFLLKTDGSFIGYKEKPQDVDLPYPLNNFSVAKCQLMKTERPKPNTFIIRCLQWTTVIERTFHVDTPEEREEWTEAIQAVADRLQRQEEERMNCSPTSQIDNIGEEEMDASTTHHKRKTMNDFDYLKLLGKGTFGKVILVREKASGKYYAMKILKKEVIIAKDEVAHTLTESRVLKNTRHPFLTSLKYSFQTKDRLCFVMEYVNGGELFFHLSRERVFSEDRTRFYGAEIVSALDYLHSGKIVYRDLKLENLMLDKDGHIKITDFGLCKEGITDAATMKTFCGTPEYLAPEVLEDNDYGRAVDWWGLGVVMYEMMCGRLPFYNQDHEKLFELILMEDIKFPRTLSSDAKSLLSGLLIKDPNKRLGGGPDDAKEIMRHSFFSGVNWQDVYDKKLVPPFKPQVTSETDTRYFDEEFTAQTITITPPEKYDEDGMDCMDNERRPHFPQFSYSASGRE
pIC50: −log10 of the molar value.
List of pIC50 values.
parameter: pIC50

| chemical.structure | measured.value |
| --- | --- |
| CN(c1cccc(Cl)c1)c1ncnc(Nc2cc(Cl)c(Cl)c(Cl)c2)n1 | < 4.96 |
| c1ccc(Nc2ncccc2-c2ncnc(Nc3ccc4[nH]ncc4c3)n2)cc1 | < 4.93 |
| COC(=O)c1ccc(-c2cc(Nc3ncnc(NCCc4ccc(OC)cc4)n3)[nH]n2)cc1 | < 5.00 |
| COc1ccc(Nc2ncnc(Nc3ccc4c(c3)CCC4)n2)cc1OC | 5.02 to 5.18 |
| COC(=O)c1ccc(-c2cc(Nc3ncnc(NCc4cccnc4)n3)[nH]n2)cc1 | 4.95 to 5.06 |
| CN(c1cccc(Br)c1)c1ncnc(Nc2cccc(Cc3nnn[nH]3)c2)n1 | < 4.99 |
| COCCNc1ncnc(Nc2cc(-c3ccc(C(=O)OC)cc3)n[nH]2)n1 | < 4.91 |
| NC(=O)Cc1cccc(Nc2ncnc(-n3c(NCc4ccccc4)nc4ccccc43)n2)c1 | 5.00 to 5.11 |

====

Biological target: Kdr (Homo sapiens)
Construct: Kinases are expressed as either kinase domains or full length constructs; made in house
Test: Kinase inhibition assay (33P transfer), Kdr
Format: biochemical
Settings: Table 3, class symbols; read-out: KDR-1
Description: The inhibitor compounds described herein are screened in the following manner. […] Kinases are expressed as either kinase domains or full length constructs fused to glutathione S-transferase (GST) or polyHistidine tagged fusion proteins in either E. colior Baculovirus-High Five expression systems. […]
parameter: IC50

| chemical.structure | measured.target | measured.value |
| --- | --- | --- |
| COc1ccc(Nc2ncnc(Nc3ccc4c(c3)C(=O)OC4)n2)cc1OC | Kdr (Homo sapiens) | 1.05 to 6.33 µM |
| COC(=O)c1ccc(-c2cc(Nc3ncnc(NCc4ccccc4OC)n3)[nH]n2)cc1 | Kdr (Homo sapiens) | 8.11 to 10.4 µM |
| COc1cc(Nc2ncnc(N3CCCc4ccc(Cl)cc43)n2)cc(OC)c1OC | Kdr (Homo sapiens) | > 10.5 µM |
| COc1cc(Nc2ncnc(Nc3ccc(OCCO)cc3)n2)cc(OC)c1OC | Kdr (Homo sapiens) | < 0.968 µM |
| Fc1ccc(CNc2ncccc2-c2ncnc(Nc3cccc(Cn4ccnn4)c3)n2)cc1 | Kdr (Homo sapiens) | < 0.882 µM |
| CNS(=O)(=O)Cc1ccc(Nc2ncnc(Nc3cc(-c4ccco4)[nH]n3)n2)cc1 | Kdr (Homo sapiens) | < 0.938 µM |
| COc1cc(Nc2ncnc(-c3cccnc3N[C@@H](C)c3ccccc3)n2)cc(OC)c1OC | Kdr (Homo sapiens) | < 0.872 µM |
| CN(c1cccc(Cl)c1)c1ncnc(Nc2ccc3nn(C)cc3c2)n1 | Kdr (Homo sapiens) | 1.09 to 6.56 µM |

====

biological target: IGFR-1 (Homo sapiens); construct: Kinases are expressed as either kinase domains or full length constructs; made in house; test: Kinase inhibition assay (33P transfer), IGFR-1; type: biochemical; settings: Table 2, kinase inhibition class
Sequence (P08069 31-1367): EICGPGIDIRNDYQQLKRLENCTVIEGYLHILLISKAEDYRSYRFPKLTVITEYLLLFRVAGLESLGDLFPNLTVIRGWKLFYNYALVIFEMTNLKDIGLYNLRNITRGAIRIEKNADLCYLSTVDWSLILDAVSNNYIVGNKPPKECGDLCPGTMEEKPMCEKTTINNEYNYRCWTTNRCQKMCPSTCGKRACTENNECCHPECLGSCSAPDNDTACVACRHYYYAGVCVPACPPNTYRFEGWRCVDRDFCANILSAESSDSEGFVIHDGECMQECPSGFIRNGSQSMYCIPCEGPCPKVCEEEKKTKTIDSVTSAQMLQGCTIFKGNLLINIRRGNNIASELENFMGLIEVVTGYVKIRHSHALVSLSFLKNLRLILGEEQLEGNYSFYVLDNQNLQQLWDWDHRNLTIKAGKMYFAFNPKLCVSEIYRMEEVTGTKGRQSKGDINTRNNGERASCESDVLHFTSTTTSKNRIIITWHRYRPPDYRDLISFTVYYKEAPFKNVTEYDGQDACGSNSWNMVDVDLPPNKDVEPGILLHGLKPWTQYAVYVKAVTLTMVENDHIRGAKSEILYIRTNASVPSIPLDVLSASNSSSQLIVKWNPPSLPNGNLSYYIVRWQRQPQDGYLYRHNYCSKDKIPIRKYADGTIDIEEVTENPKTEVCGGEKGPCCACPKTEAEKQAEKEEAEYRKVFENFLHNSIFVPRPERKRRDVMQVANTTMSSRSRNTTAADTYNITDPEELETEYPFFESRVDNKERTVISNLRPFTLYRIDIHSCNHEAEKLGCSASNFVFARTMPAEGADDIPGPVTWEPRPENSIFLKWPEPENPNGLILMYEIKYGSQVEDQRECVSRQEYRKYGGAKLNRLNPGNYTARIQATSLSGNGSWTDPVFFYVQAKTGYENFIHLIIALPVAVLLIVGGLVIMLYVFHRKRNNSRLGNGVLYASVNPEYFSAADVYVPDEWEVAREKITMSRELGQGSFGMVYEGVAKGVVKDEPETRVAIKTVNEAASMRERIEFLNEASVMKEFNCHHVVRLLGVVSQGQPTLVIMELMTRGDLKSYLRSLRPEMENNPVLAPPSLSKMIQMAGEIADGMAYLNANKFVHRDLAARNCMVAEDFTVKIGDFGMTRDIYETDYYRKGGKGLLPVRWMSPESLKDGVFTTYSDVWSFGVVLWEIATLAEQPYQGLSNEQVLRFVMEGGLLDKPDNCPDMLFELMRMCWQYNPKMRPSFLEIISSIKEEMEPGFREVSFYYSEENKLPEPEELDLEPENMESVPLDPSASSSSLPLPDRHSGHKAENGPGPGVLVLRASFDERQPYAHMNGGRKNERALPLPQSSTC
pIC50: −log10 of the molar value.

| chemical.structure | pIC50 |
| --- | --- |
| COCCOc1ccc(Nc2ncnc(-n3c(N)nc4ccccc43)n2)cc1OCCOC | > 6.05 |
| COc1cc(Nc2ncnc(-n3c(Nc4ccc(F)cc4)nc4ccccc43)n2)cc(OC)c1OC | < 5.03 |
| COc1cccc(Nc2ncnc(Nc3ccc(OCc4ccccc4)cc3)n2)c1 | < 4.95 |
| COc1cc(Nc2ncnc(Nc3ccc(O)cc3Cl)n2)cc(OC)c1OC | 5.23 to 6.00 |
| COC(=O)c1ccc(Nc2ncnc(Nc3cc(-c4ccco4)n[nH]3)n2)cc1 | 5.20 to 5.97 |
| COc1cc(Nc2ncnc(-n3cc(C#N)c4ccccc43)n2)cc(OC)c1OC | 5.06 to 5.22 |
| COc1cc(Nc2ncnc(-n3cnc4ccccc43)n2)cc(OC)c1OC | 5.20 to 5.98 |
| COc1cc(Nc2ncnc(Nc3cccc4cccnc34)n2)cc(OC)c1OC | < 4.95 |
| COc1cc(C)c(Nc2ncnc(Nc3cc(-c4ccco4)n[nH]3)n2)cc1OC | > 5.99 |

====

Molecular target: Itk (Homo sapiens, UniProt Q08881)
Construct: Kinases are expressed as either kinase domains or full length constructs; made in house
Sequence (Q08881 1-620): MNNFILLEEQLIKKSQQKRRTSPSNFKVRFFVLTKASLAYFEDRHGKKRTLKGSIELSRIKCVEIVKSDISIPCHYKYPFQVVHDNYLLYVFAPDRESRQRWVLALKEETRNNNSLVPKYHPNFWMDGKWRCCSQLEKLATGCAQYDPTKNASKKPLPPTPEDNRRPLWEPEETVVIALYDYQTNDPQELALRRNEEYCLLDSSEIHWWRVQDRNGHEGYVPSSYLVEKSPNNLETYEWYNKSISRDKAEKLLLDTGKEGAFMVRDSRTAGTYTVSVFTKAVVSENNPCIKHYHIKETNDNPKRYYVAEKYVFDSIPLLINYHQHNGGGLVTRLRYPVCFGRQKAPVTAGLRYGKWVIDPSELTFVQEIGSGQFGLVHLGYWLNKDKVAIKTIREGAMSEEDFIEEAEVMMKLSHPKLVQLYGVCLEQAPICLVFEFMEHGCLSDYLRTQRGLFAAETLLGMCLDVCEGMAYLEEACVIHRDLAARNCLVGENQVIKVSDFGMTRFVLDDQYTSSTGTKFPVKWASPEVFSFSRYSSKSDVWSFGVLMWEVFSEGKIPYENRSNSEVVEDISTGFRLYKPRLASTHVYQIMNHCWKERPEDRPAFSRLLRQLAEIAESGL
Test: Kinase inhibition assay (33P transfer), Itk
Format: biochemical
Settings: Table 3; read-out: Itk-1
pIC50: −log10 of the molar value.
# pIC50 listing for each entry below
parameter: pIC50

| compound | measured.value |
| --- | --- |
| Nc1ncnc(Nc2cc(Cl)ccc2O)n1 | < 4.72 |
| COc1cc2ccn(-c3ncnc(Nc4cc(OC)c(OC)c(OC)c4)n3)c2cc1OC | < 4.99 |
| COc1cc(Nc2ncnc(N3CCCC3)n2)cc(OC)c1OC | < 4.87 |
| COc1ccc(Nc2ncnc(Nc3ccccc3C)n2)cc1OC | < 4.87 |
| COC(=O)c1cccc(Nc2ncnc(Nc3cc(-c4ccco4)n[nH]3)n2)c1 | < 4.92 |
| COc1ccccc1Nc1ncnc(Nc2cc(OC)c(OC)c(OC)c2)n1 | 4.93 to 5.04 |
| Nc1ncnc(Nc2cccc(C(F)(F)F)c2)n1 | < 4.75 |
| O=C1OCc2ccc(Nc3ncnc(Nc4cc(-c5ccco5)n[nH]4)n3)cc21 | 5.03 to 5.19 |
| COc1cc(Nc2ncnc(N)n2)cc(OC)c1OC [Compound 1024] | < 4.79 |
| O=c1[nH]c2ccccc2n1-c1ncnc(Nc2ccc(NS(=O)(=O)c3ccc([N+](=O)[O-])cc3)cc2)n1 | < 5.05 |
| NC(=O)c1ccc(Nc2ncnc(-c3ccccc3)n2)cc1 | < 4.81 |
| FC(F)C(F)(F)Oc1cccc(Nc2ncnc(-c3cccs3)n2)c1 | < 4.92 |
| O=C(Nc1ccc(Nc2ncnc(-n3c(=O)[nH]c4ccccc43)n2)cc1)O[C@@H]1CCOC1 | < 4.98 |
| COc1cc(Nc2ncnc(Nc3cc(Cl)c(O)c(Cl)c3)n2)cc(OC)c1OC | < 4.99 |
| COC(=O)c1sccc1Nc1ncnc(Nc2cc(OC)c(OC)c(OC)c2)n1 | < 4.97 |
| COc1cc(Nc2ncnc(-c3cc4ccccc4s3)n2)cc(OC)c1OC | < 4.94 |
| COc1cc(Nc2ncnc(-n3c(Nc4ccc5[nH]ncc5c4)nc4ccccc43)n2)cc(OC)c1OC | 5.33 to 6.11 |
| COc1ccc(Nc2ncnc(-c3cccs3)n2)cc1OC | < 4.84 |

====

Biological target: Kdr (Homo sapiens, UniProt P35968)
Construct: Kinases are expressed as either kinase domains or full length constructs; made in house
Sequence (P35968 20-1356, species assumed): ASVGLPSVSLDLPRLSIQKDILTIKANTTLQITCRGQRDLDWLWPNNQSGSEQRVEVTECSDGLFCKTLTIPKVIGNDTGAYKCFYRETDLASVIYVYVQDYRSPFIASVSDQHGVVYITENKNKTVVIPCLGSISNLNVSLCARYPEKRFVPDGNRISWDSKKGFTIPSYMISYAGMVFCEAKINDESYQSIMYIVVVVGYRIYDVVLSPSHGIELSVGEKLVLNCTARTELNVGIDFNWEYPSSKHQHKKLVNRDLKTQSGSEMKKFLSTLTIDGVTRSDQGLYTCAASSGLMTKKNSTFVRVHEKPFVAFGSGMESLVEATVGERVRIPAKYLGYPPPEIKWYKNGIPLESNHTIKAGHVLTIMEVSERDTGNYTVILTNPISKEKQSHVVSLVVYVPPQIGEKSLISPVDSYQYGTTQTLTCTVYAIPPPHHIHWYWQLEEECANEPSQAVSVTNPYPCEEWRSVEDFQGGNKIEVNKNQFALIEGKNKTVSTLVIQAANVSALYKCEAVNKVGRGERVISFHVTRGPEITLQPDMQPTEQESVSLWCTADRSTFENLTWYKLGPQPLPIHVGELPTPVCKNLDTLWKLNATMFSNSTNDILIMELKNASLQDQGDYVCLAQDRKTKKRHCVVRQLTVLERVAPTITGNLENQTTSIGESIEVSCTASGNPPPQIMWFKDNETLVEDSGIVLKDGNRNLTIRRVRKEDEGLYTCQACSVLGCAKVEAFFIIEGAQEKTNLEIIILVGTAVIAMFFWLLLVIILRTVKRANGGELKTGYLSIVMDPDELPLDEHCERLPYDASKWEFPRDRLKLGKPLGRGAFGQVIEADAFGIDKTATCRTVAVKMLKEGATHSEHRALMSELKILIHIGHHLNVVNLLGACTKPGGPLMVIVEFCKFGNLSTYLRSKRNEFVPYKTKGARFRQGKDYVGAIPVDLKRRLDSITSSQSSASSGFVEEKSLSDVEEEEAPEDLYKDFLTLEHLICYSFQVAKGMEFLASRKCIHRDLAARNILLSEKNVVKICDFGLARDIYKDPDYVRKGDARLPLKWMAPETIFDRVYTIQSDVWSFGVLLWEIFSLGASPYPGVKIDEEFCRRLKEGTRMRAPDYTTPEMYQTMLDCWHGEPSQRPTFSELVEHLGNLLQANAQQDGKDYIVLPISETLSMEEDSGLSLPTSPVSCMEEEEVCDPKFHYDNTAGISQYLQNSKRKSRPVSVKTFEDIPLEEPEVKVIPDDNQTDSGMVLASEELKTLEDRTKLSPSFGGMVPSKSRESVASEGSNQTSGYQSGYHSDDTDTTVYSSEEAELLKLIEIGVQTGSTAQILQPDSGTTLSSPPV
Experiment: Kinase inhibition assay (33P transfer), Kdr
Assay type: biochemical
Conditions: Table 3; read-out: KDR-1
From the text: The inhibitor compounds described herein are screened in the following manner. […] Kinases are expressed as either kinase domains or full length constructs fused to glutathione S-transferase (GST) or polyHistidine tagged fusion proteins in either E. colior Baculovirus-High Five expression systems. […]
pIC50: −log10 of the molar value.
Recorded pIC50, one value per entry.

| molecule | pIC50 |
| --- | --- |
| COCCOc1ccc(Nc2ncnc(-n3c(N)nc4ccccc43)n2)cc1OCCOC [Compound 302] | 5.27 to 6.05 |
| COc1cc(Nc2ncnc(-c3cccnc3)n2)cc(OC)c1OC [Compound 219] | 5.15 to 5.93 |
| COCCOc1ccc(Nc2ncnc(Nc3ccc4[nH]ccc4c3)n2)cc1OCCOC [Compound 321] | > 6.05 |
| NS(=O)(=O)c1ccc(CNc2ncnc(-n3c(=O)[nH]c4ccccc43)n2)cc1 [Compound 456] | < 4.95 |
| COc1ccc(Oc2ncnc(Nc3cc(OC)c(OC)c(OC)c3)n2)cc1 [Compound 174] | > 5.98 |
| FC(F)(F)c1cccc(Nc2ncnc(-n3cccc3)n2)c1 [Compound 277] | 5.10 to 5.88 |
| COc1cc(Nc2ncnc(-n3c(Nc4cccc(C(=O)O)c4)nc4ccccc43)n2)cc(OC)c1OC [Compound 390] | 5.33 to 6.11 |
| COc1cc(Nc2ncnc(-n3c(=O)[nH]c4ccccc43)n2)cc(OC)c1OC [Compound 325] | > 5.99 |
